tested on: SK-MEL-28 melanoma; assay: NCI tumour cell line growth inhibition, 48 h; in the data active = GI50 below about 0.43 µM; inactive = the rest
Hi! Could you answer with just one of these? active, inactive

molecule: Cc1cc(N2CCSCC2)nc(NC2CCCC(Nc3ccnc4cc(Cl)ccc34)C2)n1 (centres undefined)
group-label: inactive
//
molecule: O=C(/C=C/c1ccccc1)n1c(-c2ccc(Cl)cc2)nc2ccccc21
group-label: inactive
//
molecule: COc1nc(N)nc2c1ncn2C1OC(CO)C(O)C1O (centres undefined)
group-label: inactive
//
molecule: CCCC(CCC)C(=O)OCC1(CO)C/C(=C\c2ccc(F)cc2)C(=O)O1 (centres undefined)
group-label: inactive
//
molecule: COc1ccccc1CNCCCN1C(=O)c2ccc3c4c(ccc(c24)C1=O)C(=O)N(CCCCNCCCN)C3=O
group-label: inactive
//
molecule: CN1C(=O)N[C@H]2[C@@H]3NC(=O)c4ccc(Br)n4[C@@H]3C[C@]21O
group-label: active
//
molecule: CC(=O)[CH-]C(=O)c1ccccc1.CC(=O)[CH-]C(=O)c1ccccc1.CCOCC[O-].CCOCC[O-].[Ti+4]
group-label: inactive
//
molecule: COc1ccc(OC)c(-c2cc(-c3ccc(Cl)cc3)nn2-c2ccc(S(=O)(=O)NC(C)=O)cc2)c1
group-label: inactive

Next molecule, please.
Please state the recorded outcome for this molecule: COc1cc(-c2nc(-c3nc4ccccc4[nH]3)cc3c2[nH]c2ccccc23)cc(OC)c1OC
inactive

###

system: HOP-62 NSCLC; experiment: NCI tumour cell line growth inhibition, 48 h
experimental-endpoint: TGI

compound: COc1ccc(OC)c2c1[nH]c(=O)c1c3ncccc3cn21
TGI: > 100 µM
//
compound: Nc1nn2c(nc(N)c3c(N)[nH]nc32)c1N=Nc1ccc(Br)cc1
TGI: > 93 µM
//
compound: c1c[nH]c(C23C4C5C6C4C2C6C53)n1 (stereo not given)
TGI: > 100 µM
//
compound: CCOC(=N)/C(=C1\OC(N)=C(c2ccc(Cl)cc2)C1=O)c1ccc(Cl)cc1
TGI: 43.6 µM
//
compound: CC(C)(C)[Si](C)(C)OC1[C@@H](O[Si](C)(C)C(C)(C)C)[C@@H](CNC(=O)NC(=O)CCl)O[C@H]1n1cnc2c(NC(=O)Nc3ccccc3)ncnc21 (stereo not given in full)
TGI: 0.953 µM

// TGI lookup, key: O=[N+]([O-])C1Cc2ccccc2OC1c1ccccc1 (stereo not given)
83.2 µM

// TGI lookup, key: C[N+]1(CCCl)CC[N+](C)(CCCl)CC1 (stereo not given)
> 100 µM

// TGI lookup, key: Cc1nc(N2CCC3(CC2)CO[C@@H](C)[C@H]3N)c(CO)nc1Sc1ccnc(N)c1Cl
> 100 µM

// TGI lookup, key: COc1ccc(-c2c3c(n(C4OC(COC(C)=O)C(OC(C)=O)C(OC(C)=O)C4OC(C)=O)c(=S)c2C#N)CC(C)(C)CC3=O)cc1 (stereo not given)
> 100 µM

// TGI lookup, key: CC(=O)[CH-]C(=O)c1ccccc1.CC(=O)[CH-]C(=O)c1ccccc1.CCOCC[O-].CCOCC[O-].[Ti+4]
85.8 µM

// TGI lookup, key: CCc1cccc(CC)c1NC(=O)C1=C(C)NC(C)=C(C(=O)Nc2c(CC)cccc2CC)C1c1ccc([N+](=O)[O-])cc1
> 100 µM

// TGI lookup, key: CCc1cc(CCC(=O)Nc2c(C)cccc2C)[nH]n1
> 100 µM

// TGI lookup, key: O=c1c2cccc3cccc(c4n1CCN=4)c32
> 100 µM

// TGI lookup, key: CC(=O)On1c(-c2ccccc2-c2nc3ccccc3n2OC(C)=O)nc2ccccc21
> 100 µM

// TGI lookup, key: Cc1cc(=O)oc2c(C)c(OCCCOc3ccc4c(C)cc(=O)oc4c3C)ccc12
> 100 µM

###

test system: NCI-H460 lung; assay: NCI tumour cell line growth inhibition, 48 h
Measured TGI, listed per entry for reference.

Worked cases, TGI given:
compound: O=Cc1ccc(-c2ccc(-c3nc4ccccc4o3)cc2)o1
TGI: > 100 µM

compound: Nc1nn2c(nc(N)c3c(N)[nH]nc32)c1N=Nc1ccc(Br)cc1
TGI: > 100 µM

compound: COc1ccc(-c2c3c(n(C4OC(COC(C)=O)C(OC(C)=O)C(OC(C)=O)C4OC(C)=O)c(=S)c2C#N)CC(C)(C)CC3=O)cc1 (stereo unspecified)
TGI: > 100 µM

compound: CC1C2(C)OC(=N)C(C#N)(C(c3cccc([N+](=O)[O-])c3)O2)C1(C#N)C#N (stereo unspecified)
TGI: 29.7 µM

compound: COC(=O)c1cnc(Cl)cn1
TGI: > 100 µM

Now look at this entry.
// TGI lookup, key: O=C1CCCCCCCCCCC1CN1CCCCC1 (stereo unspecified)
> 100 µM

###

test system: HL-60(TB) leukemia; assay: NCI tumour cell line growth inhibition, 48 h
Measured TGI, listed per entry for reference.
Lab book: enter the figure in µM, no units written.

Worked cases, TGI given:
molecule: Nc1ccc(C(=O)c2cn(CCN3CCOCC3)c3ccccc23)c2ccccc12
value-unit: µM
TGI: 44.8
--
molecule: CC(C)(C)C1CCC2c3c([nH]c4ccccc34)C3C(=O)N(c4ccccc4)C(=O)C3C2C1 (stereo unspecified)
value-unit: µM
TGI: 30.6

// TGI lookup, key: CCC(CNc1cc(OC)cc2cccnc12)NC1CCCCC1 (stereo unspecified)
41.7

###

test system: KM12 colon; assay: NCI tumour cell line growth inhibition, 48 h; in the data active = GI50 below about 0.43 µM; inactive = the rest
Hi! Could you answer with just one of these? t for active, f for inactive

Reference set (4 entries):
molecule: COc1cccc(NC(=O)c2sc3nc4c(cc3c2N)C(=O)CCC4)c1
group-label: t

molecule: CCOC(=O)CC1C(COC(=O)NC)OC(n2cnc3c(NC(=O)Nc4ccccc4)ncnc32)C1O[Si](C)(C)C(C)(C)C (stereo not given)
group-label: f

molecule: COC(=O)Cc1ccc(Oc2cnc3cc(F)c(F)cc3n2)cc1
group-label: f

molecule: N#CC1=C(N)NC(N2CCOCC2)=NC12Nc1ccccc1N2
group-label: f

Please state the recorded outcome for this molecule: COc1cc(CNc2ccccc2C(=O)N2CCN(C(=O)c3cc(-c4cc(OC)c(OC)c(OC)c4)n4nc(-c5ccccc5)cc4n3)CC2)cc(OC)c1OC
f

###

tested on: A498 renal; assay: NCI tumour cell line growth inhibition, 48 h
experimental-endpoint: TGI

Worked cases, TGI given:
molecule: CN(C)CCCn1nc(N)c2nc3cc(Cl)ccc3nc21
measurement: > 100 µM

molecule: N#Cc1c(-c2ccccc2)c(N=Nc2ccc(Cl)cc2)c(=O)n2c1[nH]c1ccccc12
measurement: > 100 µM

// TGI lookup, key: COc1ccc2nc3cc([N+](=O)[O-])ccc3c(NCCCN(C)C)c2c1
5.72 µM

// TGI lookup, key: CCNC(=O)c1c(O)c2ccccc2[nH]c1=O
> 100 µM

// TGI lookup, key: CC(=O)OCC1OC(Oc2cc(C)c(O)cc2C/C=C(\C)CC/C=C(\C)CC(=O)CC(C)C)C(O)C(OC(C)=O)C1OC(C)=O (configuration not stated)
27.6 µM

###

tested on: PC-3 prostate; experiment: NCI tumour cell line growth inhibition, 48 h
Measured TGI, listed per entry for reference.

Worked cases, TGI given:
compound: O=S(=O)(/N=C(\NO)Nc1ccc(Cl)cc1)c1cccc2nsnc12
TGI: > 100 µM
//
compound: N#Cc1c(-c2ccccc2)[nH]c(=O)n(C2OC(CO)C(O)C(O)C2O)c1=O (centres undefined)
TGI: > 100 µM
//
compound: CC(=O)OC1COC(Nc2nc(NCc3ccccc3)n(C)c(=O)c2N=O)C(OC(C)=O)C1OC(C)=O (centres undefined)
TGI: > 10 µM
//
compound: CCOC(=O)CNc1nc(=O)c2c(=O)oc(Cl)cc2o1
TGI: 26 µM
//
compound: COc1cc(Nc2nc3ccccc3cc2C(=O)Nc2ccc(F)c(F)c2)cc(OC)c1OC
TGI: 7.9 µM

// TGI lookup, key: CCN(CC)CCCC(C)N=C(C1=C(C(=NC(C)CCCN(CC)CC)c2cccc(OC)c2)C(=O)NC1=O)c1cccc(OC)c1 (centres undefined)
5.12 µM

// TGI lookup, key: Cc1ccc2oc(=O)c(C(=O)Nc3nc(C45CC6CC(CC(C6)C4)C5)cs3)cc2c1
> 100 µM

// TGI lookup, key: CN(/N=C/c1ccnc2ccccc12)c1ccc(Cl)cc1[N+](=O)[O-]
> 100 µM

// TGI lookup, key: O=C(NCc1cccc2ccccc12)N/N=C\c1ccc(Cl)cc1
> 100 µM

// TGI lookup, key: CCOP(=O)(OCC)C(C#N)Cc1ccco1 (centres undefined)
> 10 µM

// TGI lookup, key: N#Cc1c(-c2ccccc2)c(N=Nc2ccc(Cl)cc2)c(=O)n2c1[nH]c1ccccc12
> 100 µM

// TGI lookup, key: CC(C)=CCC/C(C)=C/CC/C(C)=C/CC/C(=C/CC/C(C)=C\CC/C(C)=C/CC/C(C)=C/CC/C(C)=C/Cc1cc(O)ccc1O)CO
15.5 µM

// TGI lookup, key: COc1ccccc1CNCCCN1C(=O)c2ccc3c4c(ccc(c24)C1=O)C(=O)N(CCCCNCCCN)C3=O
9.82 µM

// TGI lookup, key: O=C(N/N=C1/C(=O)c2c3ccccc3cc3cccc1c23)c1ccccc1
> 84.1 µM

// TGI lookup, key: COc1ccc(C(=O)c2cc3c(N)c(C(=O)Nc4ccc(C)cc4)sc3nc2C)cc1
> 100 µM

// TGI lookup, key: O=C(Nc1ccc(-n2ccc3c(NC(=O)c4ccccc4)ncnc32)cc1)Nc1cccc(Cl)c1Cl
1.57 µM

// TGI lookup, key: Cc1csc(/N=C\c2c(O)c3ccccc3oc2=O)n1
> 100 µM

// TGI lookup, key: C=C1C(=O)O[C@@H]2C[C@]3(C)CC[C@]4(C)[C@H](CC[C@@H]5[C@@]6(C)CCC(=O)C(C)(C)[C@@H]6CC[C@]54C)[C@H]3[C@H]12
35.4 µM

// TGI lookup, key: O=C1CC(c2cccc(Br)c2)n2cccc21 (centres undefined)
> 100 µM
